The entries below are paired with their reported growth.
Tested on: HOP-92 NSCLC
Experiment: NCI-60 one-dose screen, 48 h (100 = growth as untreated, 0 = no growth, -100 = all killed)
Conditions: 10 µM unless noted
Protocol: Growth inhibition of the HOP-92 human Non-Small Cell Lung tumor cell line is measured as a screen for anti-cancer activity. Cells are grown in 96 well plates and exposed to the test compound for 48 hours. Compounds are tested at a single concentration, which is 10^-5 M for most compounds. The reported endpoint is percent growth (GI% or GIPRCNT), where numbers from 0 - 100% represent growth inhibition, and numbers from -100% - 0 represent cell death. […]
This is part of a sample that, as a whole, favours compounds with a hit. Of some 83,000 tested, about 20% had one in any assay. Calls of active or inactive are those of the source. How the source made its calls: active means growth percent below 10; inactive means the rest.

Worked examples follow.
O=c1nc(-c2ccccc2)c2cc(-c3ccc(C(F)(F)F)nc3)ccc2[nH]1 : 105% (inactive)
CCC1S/C(=N\N=C(\C)c2cc3cc(Cl)ccc3o2)N(c2ccccc2)C1=O (stereo not given) : 71% (inactive)
CN(C)CCCC1(c2ccc(F)cc2)OCc2cc(-c3cc4ccccc4s3)ccc21 (stereo not given) : 26.8% (inactive)
CCCC(CC)(C(=O)Nc1ccc2nc(C)cc(N)c2c1)C(=O)Nc1ccc2nc(C)cc(N)c2c1 : 117% (inactive)
CC(=O)O[C@H]1C[C@@H]2C(C)(C)C(=O)CC[C@@]2(C)c2ccc(C(C)C)cc21 : 96.5% (inactive)
CN(C)c1ccc(/C=C(\C#N)c2cc3ccccc3[nH]2)cc1 : 26.4% (inactive)
Ic1ccccc1I : 90.2% (inactive)
COc1cc(NC(=O)c2cncnc2Nc2ccc3c(ccn3Cc3ccccn3)c2)cc(OC)c1 : 54.2% (inactive)

**Query** Reported growth for O=C(c1c[nH]c2ccccc12)c1n[nH]c(=S)n1-c1cccc(Br)c1 : what is it?
**Result** 84.2% (inactive)

**Query** Repeat with CCN(CC)c1ccc(/C=N/NC(=O)Cc2ccc(Nc3ccnc(C(F)(F)F)c3)cc2)c(O)c1
**Result** 54.1% (inactive)

The measurements presented in this section are drawn from PubChem BioAssay (NCI).
